Field: % Survivors. Provide a value for each of the molecules that follow.
Tested on: E. coli 51A266
Assay: In vivo protection against E. coli infection in mice (Table IV)
Details: PO, 200 mg./kg., doses 0.5, 4 and 24 hours after inoculation
Hi! Could you send only the number? It should be in %, unit omitted.

Q: Fill: % Survivors (E. coli 51A266) for this molecule CC1(C)S[C@@H]2[C@H](NC(=O)C(NC(=O)CNC(=N)c3ccc(Cl)cc3)c3ccccc3)C(=O)N2[C@H]1C(=O)O (stereo partly shown)
Result: 0

Q: Check E. coli 51A266 data and give % Survivors for CC1(C)S[C@@H]2[C@H](NC(=O)C(NC(=O)CNC(=N)c3ccccc3)c3ccccc3)C(=O)N2[C@H]1C(=O)O (stereo partly shown) .
Result: 10

Q: Report % Survivors from E. coli 51A266 testing of CC1(C)S[C@@H]2[C@H](NC(=O)C(NC(=O)CNC(=N)c3ccc(F)cc3)c3ccccc3)C(=O)N2[C@H]1C(=O)O (stereo partly shown)
Result: 10

Q: Report % Survivors under test system E. coli 51A266 for CC1(C)S[C@@H]2[C@H](NC(=O)C(NC(=O)CNC(=N)c3ccc(Br)cc3)c3ccccc3)C(=O)N2[C@H]1C(=O)O (stereo partly shown) .
Result: 0
